# System: Blood Pressure of SHR Rat
# Assay Details: Effect on blood pressure of SHR rat (oral administration)
# Assay type: in vivo, male SHR/Izm rats
# Condition Parameters: 4 hr after 30 mg/kg orally, mean ± SD (n = 4-5)
Metric Name: Blood pressure, 4 hr

Documented Blood pressure, 4 hr of COc1ccccc1N1CCN(CC(O)COc2c(C)cc(O)c3ccccc23)CC1.Cl.Cl (stereo not drawn) [Example 4] : 212.2 ± 20.8^*1 mmHg

Measured Blood pressure, 4 hr of COc1ccccc1N1CCN(CC(O)COc2cc(C)c(O)c3ccccc23)CC1 (stereo not drawn) [Example 2] : 187.8 ± 11.4^*1 mmHg

Documented Blood pressure, 4 hr of COc1ccccc1N1CCN(CC(O)COc2ccc(O)c(C(C)(C)C)c2)CC1.Cl (stereo not drawn) [Example 20] : 216.3 ± 18.0^*1 mmHg
